# reported PBM binding z-score; entries follow
System: PPARg homodimer (NR concentration 180 nM)
Experiment: PBM binding z-score (relative to random genomic background probes); higher = stronger binding; sequences stand for … in GC…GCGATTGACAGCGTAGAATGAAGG
Please give the numeric answer without any surrounding text.

Below, each entry is followed by its recorded PBM binding z-score result.
primary.sequence	PBM binding z-score
TTACCAAGGTGAGCTGAGGTCATTGATCCAACTC	1.23
GGACCGAGGGCAAAGTTGATAGCATCTGTCGACG	0.198

Below: the item to evaluate.
input: Please look up its PBM binding z-score: `CGTCCAAGGTCAAAGAGGTCAGTGAATGCCGAGT`
output: 5.13

----------
System: VDR homodimer (NR concentration 270 nM)
Assay: PBM binding z-score (relative to random genomic background probes); higher = stronger binding; sequences stand for … in GC…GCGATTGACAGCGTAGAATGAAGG
# reported PBM binding z-score; entries follow
Please give the numeric answer without any surrounding text.

Below, each entry is followed by its recorded PBM binding z-score result.
primary.sequence	PBM binding z-score
GCGACTGGGGCATGAGCAGGTTACCATAACTTAA	-0.116
GGAAAGAGGGCATTCGAGTTGATAGCATGGCGAT	2.71
TAGCCTAGGTCAGATCGGGCCAATATACGCTATA	-0.261
GAAACAGGGTCAGCTAGAGGCCAGAGTATGGAAA	0.821
GCATATAGATAATACAAGGTGAAAGTCCGATTGT	0.0275

Below: the item to evaluate.
input: What reported PBM binding z-score corresponds to `CCTACTGGGCCAAATGTCATTGATTCCAATGCTC` on VDR homodimer (NR concentration 270 nM)?
output: -0.651

----------
System: PPARg:RXRa DBDmut IVT, anti-RXR (DBD mutation: RXRa K156A/R161A, NR concentration 270 nM, RXRa partner concentration 90 nM)
Assay: PBM binding z-score (relative to random genomic background probes); higher = stronger binding; sequences stand for … in GC…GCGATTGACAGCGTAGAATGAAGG
Outcome label depends on PBM binding z-score relative to 1: at/above gives fulfilled, below gives not fulfilled.

primary.sequence	cat
TGAATGAGGTTATAAGTTCAGGGAACGTTGCAAA	fulfilled
CGTCCAATGTCAGCAGGTCAGTGAAAGCGACGTG	not fulfilled
ACTATTAGTTGACTTAGGTCAACCGATACGACGC	not fulfilled
TGTTGTAGATCAATAGAGGTTAAGAAAGTGCGCT	not fulfilled
CAAACTAGGTCACCCGAAGGTCAAAGTCCGCATG	fulfilled

input: Check the entry `GCAGCTAGGTCAACTGATGGTCAGCTAAAGCTCG` : does PBM binding z-score equal or exceed 1?
output: fulfilled

input: Likewise for `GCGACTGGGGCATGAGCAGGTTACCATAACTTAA` ?
output: fulfilled

----------
System: RARg:RXRa (NR concentration 270 nM, RXRa partner concentration 90 nM)
Assay: PBM binding z-score (relative to random genomic background probes); higher = stronger binding; sequences stand for … in GC…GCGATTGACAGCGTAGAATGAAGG
measurement.label: PBM binding z-score
Please give the numeric answer without any surrounding text.

primary.sequence	PBM binding z-score
CCTTACGTGTCACTGACAGGTTATAGCATTTGGA	1.71
TCTGCTAGGTCAACCATGGTCAGCTAATCTGCTA	4.4
TCTTGTAGATCAACAAGAGGTTAAGAAAGATCGA	1.56
ACTCGGAGGACAAAGATCAGAGCTACGCCAGTGA	0.568
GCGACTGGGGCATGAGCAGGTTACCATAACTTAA	0.84
TCATATAGGTAATACAGGTGAAAGACGGCATCTA	0.945

input: Please look up its PBM binding z-score: `TCTAGTTGGTCAAAGGTCACACAGTCGAAATGCG`
output: 7.05

input: Likewise for `GCGACTGGGGCAAAGCAGGTGACCATAAGGTTGG` ?
output: 0.256

input: Likewise for `TCTATTAGTTGAAGGGCAACCGCCGAGTCCGTTT` ?
output: 0.448
